Can you tell me pIC50 for the items I'm about to list?
- target-under-test: Endothelin receptor type B (Sus scrofa, UniProt P35463)
- assay-info: Binding affinity towards endothelin B receptor in porcine cerebellum membranes
One number for each entry, as −log10 of the molar value.

Use the examples below as a reference point.
Input: Short answer please: pIC50, Endothelin receptor type B (Sus scrofa, UniProt P35463), entry O=C(O)C[C@H]1NC(=O)[C@@H](Cc2c(Br)[nH]c3ccccc23)NC(=O)[C@H](C2CC2)NC(=O)[C@@H](C2CCCC2)NC(=O)[C@@H]2CCCN2C1=O
Output: 7.82

Input: # query: pIC50 | item CCCCC(NC(=O)[C@@H](Cc1c(Cl)[nH]c2ccccc12)NC(=O)C(CCC)NC(=O)N1[C@H](C)CCC[C@@H]1C)C(=O)O (stereo partly drawn) | system: Endothelin receptor type B (Sus scrofa, UniProt P35463)
Output: 8.10

# ---- query compound ----
Input: Lookup: pIC50 / Endothelin receptor type B (Sus scrofa, UniProt P35463) / Cc1[nH]c2ccccc2c1C[C@H]1NC(=O)[C@H](C2CC2)NC(=O)[C@@H](C2CCCC2)NC(=O)[C@@H]2CCCN2C(=O)[C@@H](CC(=O)O)NC1=O
Output: 7.23

====

- target-under-test: UniProt P35463
- Sequence (P35463 whole entry): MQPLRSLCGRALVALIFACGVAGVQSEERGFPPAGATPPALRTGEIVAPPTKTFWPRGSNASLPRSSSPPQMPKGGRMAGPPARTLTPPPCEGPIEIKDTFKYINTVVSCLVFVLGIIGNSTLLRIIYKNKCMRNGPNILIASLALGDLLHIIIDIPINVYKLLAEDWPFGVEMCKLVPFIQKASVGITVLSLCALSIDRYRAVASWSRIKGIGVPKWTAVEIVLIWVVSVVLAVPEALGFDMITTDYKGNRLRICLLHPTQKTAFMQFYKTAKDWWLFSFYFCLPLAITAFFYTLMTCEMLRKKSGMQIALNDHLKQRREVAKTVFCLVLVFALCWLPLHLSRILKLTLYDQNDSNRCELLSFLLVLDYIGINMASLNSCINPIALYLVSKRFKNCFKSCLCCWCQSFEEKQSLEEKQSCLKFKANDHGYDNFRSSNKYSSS
- assay-info: Binding affinity towards endothelin B receptor in porcine cerebellum membranes
readout: log10(IC50) (log10 of the value in nM)
Use the decimal logarithm of IC50 (nM).

Example results:
Input: Bench note: what log10(IC50) did CCCSCC(NC(=O)[C@@H](Cc1c(Br)[nH]c2ccccc12)NC(=O)C(CC(C)C)NC(=O)N1[C@H](C)CCC[C@@H]1C)C(=O)O (some centres not stated) show?
Output: 0.28

Input: Recorded log10(IC50) for CCCCC(NC(=O)[C@@H](Cc1c(C#N)[nH]c2ccccc12)NC(=O)C(CC(C)C)NC(=O)N1[C@H](C)CCC[C@@H]1C)C(=O)O (some centres not stated) , please?
Output: 0.20

Input: Looking for the measured log10(IC50) of CCCCC(NC(=O)[C@@H](Cc1c(Br)[nH]c2ccccc12)NC(=O)C(NC(=O)N1[C@H](C)CCC[C@@H]1C)C1CC1)C(=O)O (some centres not stated) , can you help?
Output: -0.09

Input: Would you mind telling me what log10(IC50) value was observed for CCCCCC[C@@H](NC(=O)[C@@H](Cc1c(Br)[nH]c2ccccc12)NC(=O)C(CC(C)C)NC(=O)N1[C@H](C)CCC[C@@H]1C)C(=O)O (some centres not stated) ?
Output: 3.28

Input: I'd like to know its log10(IC50). The compound in question is CCCCC(NC(=O)[C@@H](Cc1c(Br)[nH]c2ccccc12)NC(=O)C(CC(C)C)NC(=O)N1CCCCC1C)C(=O)O (some centres not stated)
Output: 1.53

Input: I'd like to know its log10(IC50). The compound in question is CCCCC(NC(=O)[C@@H](Cc1c(Cl)[nH]c2ccccc12)NC(=O)C(CC1CC1)NC(=O)N1[C@H](C)CCC[C@@H]1C)C(=O)O (some centres not stated)
Output: 0.79

// switching to the query compound
Input: Reported log10(IC50) for CCCC(NC(=O)[C@@H](Cc1c(C#N)[nH]c2ccccc12)NC(=O)C(NC(=O)N1[C@H](C)CCC[C@@H]1C)C(C)C)C(=O)O (some centres not stated) : what is it?
Output: 0.75

====

Can you tell me IC50 for the items I'm about to list?
- target-under-test: Endothelin-1 receptor (Sus scrofa, UniProt Q29010)
- Sequence (Q29010 whole entry): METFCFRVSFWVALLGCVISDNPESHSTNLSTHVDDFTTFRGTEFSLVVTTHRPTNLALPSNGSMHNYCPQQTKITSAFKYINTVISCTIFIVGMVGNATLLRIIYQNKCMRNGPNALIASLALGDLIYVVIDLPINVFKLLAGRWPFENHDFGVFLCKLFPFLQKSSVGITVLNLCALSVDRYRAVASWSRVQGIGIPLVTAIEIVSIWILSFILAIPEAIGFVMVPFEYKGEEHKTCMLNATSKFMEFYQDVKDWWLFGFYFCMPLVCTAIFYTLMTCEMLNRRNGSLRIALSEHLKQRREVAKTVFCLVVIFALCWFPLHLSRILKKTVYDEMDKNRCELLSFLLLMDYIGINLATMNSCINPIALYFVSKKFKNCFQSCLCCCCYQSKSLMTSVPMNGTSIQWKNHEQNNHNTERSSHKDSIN
Give bare numbers, in nM.

Input: Record request: IC50 value, item CC(C)CC(NC(=O)N1[C@H](C)CCC[C@@H]1C)C(=O)N[C@H](Cc1c(Br)[nH]c2ccccc12)C(=O)NC(Cc1cnc[nH]1)C(=O)O (stereo partly drawn)
Output: 3.8

Input: Requested read-out: IC50. Entry: CCCCC(NC(=O)[C@@H](Cc1c(Cl)[nH]c2ccccc12)NC(=O)C(CC1CC1)NC(=O)N1[C@H](C)CCC[C@@H]1C)C(=O)O (stereo partly drawn)
Output: 14

Others:
Input: If you can, please state the reported IC50 value of CCCC(NC(=O)[C@@H](Cc1c(C#N)[nH]c2ccccc12)NC(=O)C(NC(=O)N1[C@H](C)CCC[C@@H]1C)C(C)C)C(=O)O (stereo partly drawn) .
Output: 3000

====

For each of the compounds below, state its pIC50.
- target-under-test: Endothelin-1 receptor (Sus scrofa)
Answers are plain numbers, as −log10 of the molar value.

# return pIC50 for each item in the list
1. CCCCC(NC(=O)[C@@H](Cc1c(Br)[nH]c2ccccc12)NC(=O)C(CC(C)C)NC(=O)N1CCCCC1C)C(=O)O (some centres not stated)
2. CSCCC(NC(=O)[C@@H](Cc1c(Br)[nH]c2ccccc12)NC(=O)C(CC(C)C)NC(=O)N1[C@H](C)CCC[C@@H]1C)C(=O)O (some centres not stated)
3. O=C(O)C[C@H]1NC(=O)[C@@H](Cc2c(Br)[nH]c3ccccc23)NC(=O)[C@H](C2CC2)NC(=O)[C@@H](C2CCCC2)NC(=O)[C@@H]2CCCN2C1=O
4. CCCCC(NC(=O)[C@@H](Cc1c(Cl)[nH]c2ccccc12)NC(=O)C(CC(C)C)NC(=O)N1[C@H](C)CCC[C@@H]1C)C(=O)O (some centres not stated)
5. CCCCC(NC(=O)[C@@H](Cc1c(C#N)[nH]c2ccccc12)NC(=O)C(CC(C)C)NC(=O)N1[C@H](C)CCC[C@@H]1C)C(=O)O (some centres not stated)
6. CCCCC(NC(=O)[C@@H](Cc1c(C#N)[nH]c2ccccc12)NC(=O)C(NC(=O)N1[C@H](C)CCC[C@@H]1C)C(C)C(C)C)C(=O)O (some centres not stated)
7. CCCCC(NC(=O)[C@@H](Cc1c(Cl)[nH]c2ccccc12)NC(=O)C(CCC)NC(=O)N1[C@H](C)CCC[C@@H]1C)C(=O)O (some centres not stated)

Output:
1: 8.09; 2: 8.66; 3: 8.31; 4: 7.82; 5: 6.33; 6: 6.09; 7: 7.70

====

- target-under-test: Endothelin receptor type B (Homo sapiens, UniProt P24530)
- Sequence (P24530 whole entry): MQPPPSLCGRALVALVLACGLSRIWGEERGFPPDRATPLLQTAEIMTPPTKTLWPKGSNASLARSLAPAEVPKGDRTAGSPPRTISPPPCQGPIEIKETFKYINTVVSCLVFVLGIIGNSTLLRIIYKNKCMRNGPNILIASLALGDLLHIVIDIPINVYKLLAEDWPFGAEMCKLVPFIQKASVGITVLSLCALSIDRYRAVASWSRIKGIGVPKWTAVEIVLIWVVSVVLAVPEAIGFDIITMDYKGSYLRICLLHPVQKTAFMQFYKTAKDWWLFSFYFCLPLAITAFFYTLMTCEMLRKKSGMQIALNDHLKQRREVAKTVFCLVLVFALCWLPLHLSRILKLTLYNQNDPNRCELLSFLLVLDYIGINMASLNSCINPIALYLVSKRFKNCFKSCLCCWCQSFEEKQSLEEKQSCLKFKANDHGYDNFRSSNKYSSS
- assay-info: Binding affinity rowards Endothelin B receptor in human girardi heart cell membranes
readout: pIC50
Give bare numbers, as −log10 of the molar value.

Input: Which pIC50 value belongs to CCSCC(NC(=O)[C@@H](Cc1c(Br)[nH]c2ccccc12)NC(=O)C(CC(C)C)NC(=O)N1[C@H](C)CCC[C@@H]1C)C(=O)O (stereo partly specified) ?
Output: 8.44

====

- target-under-test: Endothelin-1 receptor (Sus scrofa, UniProt Q29010)
- Sequence (Q29010 whole entry): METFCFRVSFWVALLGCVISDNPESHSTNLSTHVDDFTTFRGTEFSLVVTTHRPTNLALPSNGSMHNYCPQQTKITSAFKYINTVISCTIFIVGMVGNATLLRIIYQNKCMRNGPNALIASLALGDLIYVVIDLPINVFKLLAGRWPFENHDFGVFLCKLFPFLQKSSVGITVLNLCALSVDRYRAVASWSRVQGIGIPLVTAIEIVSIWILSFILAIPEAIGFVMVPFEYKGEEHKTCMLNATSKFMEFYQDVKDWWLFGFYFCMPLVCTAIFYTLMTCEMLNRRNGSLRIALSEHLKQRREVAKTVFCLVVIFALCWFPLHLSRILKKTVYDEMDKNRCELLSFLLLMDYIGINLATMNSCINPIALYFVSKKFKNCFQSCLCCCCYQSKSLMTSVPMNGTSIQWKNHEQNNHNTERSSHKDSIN
// classify: if (IC50 < 4 nM) t else f

Input: Is it true that IC50 reported for CCCCC(NC(=O)[C@@H](Cc1c(Br)[nH]c2ccccc12)NC(=O)C(CC(C)C)NC(=O)N1CCCCCC1)C(=O)O (stereo not given in full) is less than 4 nM?
Output: f

Input: hey, is IC50 for CCCCC(NC(=O)[C@@H](Cc1c(C)[nH]c2ccccc12)NC(=O)C(CC(C)C)NC(=O)N1[C@H](C)CCC[C@@H]1C)C(=O)O (stereo not given in full) lower than 4 nM or not?
Output: f

Input: Bench note: check whether CSCCC(NC(=O)[C@@H](Cc1c(C)[nH]c2ccccc12)NC(=O)C(CC(C)C)NC(=O)N1[C@H](C)CCC[C@@H]1C)C(=O)O (stereo not given in full) shows IC50 below 4 nM
Output: f

Input: Is IC50 strictly under 4 nM for the entry CCCCC(NC(=O)[C@@H](Cc1c(Br)[nH]c2ccccc12)NC(=O)C(NC(=O)N1[C@H](C)CCC[C@@H]1C)C1CC1)C(=O)O (stereo not given in full) ?
Output: t

Lab note: next compound to report on.
Input: In plain terms, does Cc1[nH]c2ccccc2c1C[C@H]1NC(=O)[C@H](C2CC2)NC(=O)[C@@H](C2CCCC2)NC(=O)[C@@H]2CCCN2C(=O)[C@@H](CC(=O)O)NC1=O come in under 4 nM for IC50?
Output: t
